Consider the following binders; for each one, report its pKd.
Target: GST-ZZS01 fusion protein (UniProt P08515 1-218 = GST)
Sequence (P08515 1-218, tags or fused parts left off): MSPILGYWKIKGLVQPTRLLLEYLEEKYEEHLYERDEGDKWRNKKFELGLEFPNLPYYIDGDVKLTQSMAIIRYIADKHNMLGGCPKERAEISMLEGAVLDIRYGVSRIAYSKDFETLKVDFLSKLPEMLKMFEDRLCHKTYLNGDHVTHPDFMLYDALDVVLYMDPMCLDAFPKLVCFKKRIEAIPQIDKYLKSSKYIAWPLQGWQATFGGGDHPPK
Assay: Biacore SPR as in Example 3.3
Answers are plain numbers, as −log10 of the molar value.

binder	pKd
h13 (antibody, V domains shown) VH: QVQLVESGGGLVKPGGSLRLSCAASGFSFSDSYMSWLRQAPGKGLEWVSYISSSSSYTKYADSVKGRFTISRDNAKNSLYLQMNSLRAEDTAVYYCAREGSPGGQGTLVTVSS VL: DVVLTQSPLSLPVTLGQPASFSCRSSQSLVFTDGNTFLSWFLQRPGQSPRRLIYRVSNRDPGVPDRFSGSGSGTDFTLKISRVEAEDVGVYYCMQGTQWPFTFGPGTKVDIKR	8.44

Input h4 (antibody, V domains shown) VH: QVQLVESGGGLVKPGGSLRLSCAASGFTFSDHYMSWIRQTPGKGLEWVSYISSSGTYTNYADSVKGRFIISRDNAKNSLFLQMNSLRAEDTAVYYCAREGSPGGQGTLVTVSS VL: DVVMTQSPLSLPVTLGQPASISCRSSQSLVFSDGNTYLNWFQQRPGQSPRRLIYKVSDRDPGVPERFSGSGSGTDFTLKISRVEAEDIGVYYCMQGSHWPFTFGPGTKVDIKR . Output pKd: 8.54
